Data provenance is patent US20260022096A1.

Give measured pEC50 for each item. Keep answers brief.
- TESTED_ON: GFRα1-RET (Homo sapiens, UniProt P56159)
- Sequence (P56159 25-429 limits assumed): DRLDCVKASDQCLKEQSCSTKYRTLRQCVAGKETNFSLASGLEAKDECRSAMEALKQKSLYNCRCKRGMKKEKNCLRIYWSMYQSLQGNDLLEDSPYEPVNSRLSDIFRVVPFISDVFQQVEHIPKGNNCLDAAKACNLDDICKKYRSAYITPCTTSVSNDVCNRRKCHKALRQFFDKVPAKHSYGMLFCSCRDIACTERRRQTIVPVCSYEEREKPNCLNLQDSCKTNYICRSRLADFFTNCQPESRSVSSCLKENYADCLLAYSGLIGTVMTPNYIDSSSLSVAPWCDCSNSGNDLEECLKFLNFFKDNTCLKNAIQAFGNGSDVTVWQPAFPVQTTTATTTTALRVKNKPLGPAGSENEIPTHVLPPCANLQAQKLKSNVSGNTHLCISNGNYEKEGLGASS
- EXPERIMENTAL_PROTOCOL: Elk1 reporter-gene (luciferase) assay in cells expressing GFRα1-RET
- PARTICULARS: MG87 murine fibroblasts stably transfected with PathDetect Elk-1, GFRα1 and RET, 6 concentrations, agonist/activator activity
pEC50: −log10 of the molar value.

Look up and report measured pEC50 for this entry: CN(C(C)(C)C)S(=O)(=O)c1cc(Cl)c(OCc2cccnc2)c(N2[C@@H]3CC[C@H]2CN(C(=O)c2ccc(F)cc2Cl)C3)c1
> 6.00

Look up and report measured pEC50 for this entry: O=C(c1ccc(F)cc1Cl)N1C[C@H]2CC[C@@H](C1)N2c1cc(S(=O)(=O)N2CCC(c3ccccc3)CC2)ccc1Cl
> 6.00

Look up and report measured pEC50 for this entry: CCCN(C)S(=O)(=O)c1ccc(C)c(N2[C@@H]3CC[C@H]2CN(C(=O)c2ccc(F)cc2Cl)C3)c1
> 6.00

Look up and report measured pEC50 for this entry: COc1ccc(S(=O)(=O)N2CCC(=Cc3ccccc3)CC2)cc1N1[C@@H]2CC[C@H]1CN(C(=O)c1ccc(F)cc1Cl)C2
> 6.00

Look up and report measured pEC50 for this entry: O=C(O)c1ccc(S(=O)(=O)N2CCC(c3ccccc3)CC2)cc1N1[C@@H]2CC[C@H]1CN(C(=O)c1ccc(F)cc1Cl)C2
> 6.00

Look up and report measured pEC50 for this entry: CCN(CC)S(=O)(=O)c1cnc(OC)c(N2[C@@H]3CC[C@H]2CN(C(=O)c2ccc(F)cc2Cl)C3)c1
5.00 to 6.00
